- method-description: Rat pharmacokinetics, single oral dose, non-cassette
- Assay type: in vivo
- condition-parameters: rat, plasma, po, 2 mg/kg, plasma, oral 2 mg/kg, non-cassette dosed; read-out: Rat t1/2 (converted)
result-type: half-life (h)

smiles-structure	units-text	quantitative-readout
Cc1ccc(-c2cc(C(F)(F)F)nn2-c2ccc(S(N)(=O)=O)cc2)cc1Cl	h	5.1
NS(=O)(=O)c1ccc(-n2nc(C(F)(F)F)cc2-c2ccc(Cl)cc2)cc1	h	193
NS(=O)(=O)c1ccc(-n2nc(C(F)(F)F)cc2-c2ccc(F)cc2F)cc1	h	25

[A] NS(=O)(=O)c1ccc(-n2nc(C(F)(F)F)cc2-c2ccc(Cl)cc2Cl)cc1
[B] NS(=O)(=O)c1ccc(-n2nc(C(F)(F)F)cc2-c2ccc(F)c(F)c2)cc1
[C] NS(=O)(=O)c1ccc(-n2nc(C(F)(F)F)cc2-c2ccc(Cl)c(Cl)c2)cc1
[D] NS(=O)(=O)c1ccc(-n2nc(C(F)(F)F)cc2-c2ccc(F)cc2)cc1
Inquiry: Order these by half-life, descending, and give the full ranking. Please write the labels in the order that was asked for.
Reply text: C, A, B, D

---

- method-description: Canine cassette-dosed pharmacokinetics
- Format: in vivo, canines (beagles)
- condition-parameters: beagle, dog, plasma, oral, 2 mg/kg, cassette-dosed, single dosage; read-out: canine half-life (converted)
result-type: half-life

Inquiry: Which half-life reading was recorded for the compound NS(=O)(=O)c1ccc(-n2nc(C(F)(F)F)cc2-c2ccc(Cl)cc2)cc1 ?
Reply text: ~49 days

---

- method-description: Rat pharmacokinetics, single oral dose, non-cassette
- Type: in vivo
- condition-parameters: male, rat, in vivo, male rats, non-cassette dosed, comparison data; read-out: Rat t1/2 in Male (converted)
result-type: half-life (h)
I only need the number, in h, no unit after it.

Inquiry: What value of measured half-life is listed for Cc1ccc(-c2cc(C(F)(F)F)nn2-c2ccc(S(N)(=O)=O)cc2)cc1 ?
Reply text: 3.73

---

- method-description: Canine cassette-dosed pharmacokinetics
- Assay type: in vivo, canines (beagles)
- condition-parameters: beagle, dog, plasma, po, 2 mg/kg, plasma, oral 2 mg/kg each compound, cassette; read-out: Canine Cassette-dosed t1/2 (converted)
Each item that follows carries a reported half-life.

smiles-structure	result
COc1ccc(-c2cc(C(F)(F)F)nn2-c2ccc(S(N)(=O)=O)cc2)cc1Cl	~0.917 days
COc1c(Cl)cc(-c2cc(C(F)(F)F)nn2-c2ccc(S(N)(=O)=O)cc2)cc1Cl	~0.708 days
NS(=O)(=O)c1ccc(-n2nc(C(F)(F)F)cc2-c2ccc(F)cc2F)cc1	~29.8 days
NS(=O)(=O)c1ccc(-n2nc(C(F)(F)F)cc2-c2ccc(F)c(F)c2)cc1	~36.7 days
COc1c(C)cc(-c2cc(C(F)(F)F)nn2-c2ccc(S(N)(=O)=O)cc2)cc1C	~0.75 days

The record that follows has no half-life shown yet.
Inquiry: What does the data say about its half-life? Entry: NS(=O)(=O)c1ccc(-n2nc(C(F)(F)F)cc2-c2ccc(Cl)cc2Cl)cc1
Reply text: ~32.1 days

---

- assayed-target: hCOX-2 (Homo sapiens, UniProt P35354)
- Sequence (P35354 18-604): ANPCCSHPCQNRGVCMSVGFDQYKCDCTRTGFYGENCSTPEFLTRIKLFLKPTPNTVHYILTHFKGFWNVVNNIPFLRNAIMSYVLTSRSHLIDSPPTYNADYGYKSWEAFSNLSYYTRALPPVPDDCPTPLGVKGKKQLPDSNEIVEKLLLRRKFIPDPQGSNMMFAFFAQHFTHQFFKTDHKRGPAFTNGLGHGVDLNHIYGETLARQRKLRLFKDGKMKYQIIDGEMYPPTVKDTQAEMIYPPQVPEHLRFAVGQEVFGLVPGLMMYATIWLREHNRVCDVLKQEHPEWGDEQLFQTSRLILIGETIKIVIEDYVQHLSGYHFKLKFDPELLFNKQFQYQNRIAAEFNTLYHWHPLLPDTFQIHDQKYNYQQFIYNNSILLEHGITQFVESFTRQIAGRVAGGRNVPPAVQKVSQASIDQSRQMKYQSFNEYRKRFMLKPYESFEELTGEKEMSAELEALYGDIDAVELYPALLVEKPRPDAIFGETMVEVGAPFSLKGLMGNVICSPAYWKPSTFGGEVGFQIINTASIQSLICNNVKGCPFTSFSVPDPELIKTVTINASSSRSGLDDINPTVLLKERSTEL
result-type: IC50 (µM)
Number only, in µM; omit the unit.

Inquiry: Which IC50 is listed for COc1c(C)cc(-c2cc(C(F)(F)F)nn2-c2ccc(S(N)(=O)=O)cc2)cc1C ?
Reply text: 0.08
